System: SUM149PT spheroids with HUVEC/MSC, viability
measurement_protocol: Anticancer human tumor SUM149PT cell line growth inhibition [GQUAD]; active means viability on the fitted dose curve at most 10% of control; inactive means the rest;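 further: spheroids exposed to drugs for seven days before readout; percent viability relative to DMSO vehicle control taken as 100%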
measurement_parameters: second compound 1 µM; first compound 3.16 µM
Just give me one of these, please: True (active), False (inactive)

## Task Check the results log: what was the call for C#Cc1c(F)ccc2cc(O)cc(-c3ncc4c(N5CC6CCC(C5)N6)nc(OCC56CCCN5CC(F)C6)nc4c3F)c12 (stereo not given) + Cc1[nH]c2ccc(F)cc2c1-c1nc2c3cccnc3c3ncccc3c2[nH]1 ?
## Result False

## Task # lookup: test call for O=c1[nH]cc(F)c(=O)[nH]1 + Cc1cnc(CNC(=O)c2c(=O)c3ccc(N4CCCN(C)CC4)nc3n3c2sc2ccccc23)cn1
## Result False

## Task Kindly provide the recorded test outcome for the following molecule: O=C(NO)c1cnc(N2CCN(S(=O)(=O)c3ccc4ccccc4c3)CC2)nc1 + Cc1[nH]c2ccc(F)cc2c1-c1nc2c3cccnc3c3ncccc3c2[nH]1
## Result True

## Task Tell me the assay call for COc1ncnc(C2CC2)c1-c1ncc2cnn(Cc3ccc(-c4nc(C(F)(F)F)cn4C(C)C)cc3)c2n1 + Cc1cnc(CNC(=O)c2c(=O)c3ccc(N4CCCN(C)CC4)nc3n3c2sc2ccccc23)cn1 please.
## Result False

## Task // outcome(item) with item = COc1cccc2c1C(=O)c1c(O)c3c(c(O)c1C2=O)CC(O)(C(=O)CO)CC3OC1CC(N)C(O)C(C)O1 (stereo not given) + Cc1cnc(CNC(=O)c2c(=O)c3ccc(N4CCCN(C)CC4)nc3n3c2sc2ccccc23)cn1
## Result True

====

Tested on: SUM149PT spheroids with HUVEC/MSC, viability
measurement_protocol: Anticancer human tumor SUM149PT cell line growth inhibition [GQUAD];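 further: spheroids exposed to drugs for seven days before readout; percent viability relative to DMSO vehicle control taken as 100%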
measurement_parameters: second compound 0.0316 µM; first compound 0.0999 µM; stronger effect = lower value
Excerpt: DNA G-quadruplex Stabilizer Agents in Combinations in Complex Spheroids A high-throughput screen of multi-cell type tumor spheroids was designed to identify active combinations of DNA G-quadruplex stabilizer agents and targeted small molecules. […] Compounds. […] If the clinical Cmax for an agent had not been determined, the highest concentration tested was 10 microM. […]
Consider the cut-off 60%. If the recorded viability, T/C is strictly smaller, the label is class 1; if not, the label is class 0.

## Task viability, T/C strictly < 60% for this molecule? CCc1c2c(nc3ccc(O)cc13)-c1cc3c(c(=O)n1C2)COC(=O)[C@]3(O)CC + CN(C)c1ccc(Nc2c3ccc(NC(=O)CCN4CCCC4)cc3nc3cc(NC(=O)CCN4CCCC4)ccc23)cc1
## Result class 1

## Task # TODO verify viability, T/C < 60% strictly for this molecule: Cc1[nH]c2ccccc2c1CCNCc1ccc(/C=C/C(=O)NO)cc1 + CN(C)c1ccc(Nc2c3ccc(NC(=O)CCN4CCCC4)cc3nc3cc(NC(=O)CCN4CCCC4)ccc23)cc1
## Result class 0

## Task Record Cn1ncnc1[C@H]1c2n[nH]c(=O)c3cc(F)cc(c23)N[C@@H]1c1ccc(F)cc1 + CN(C)c1ccc(Nc2c3ccc(NC(=O)CCN4CCCC4)cc3nc3cc(NC(=O)CCN4CCCC4)ccc23)cc1 : is its viability, T/C strictly below 60%?
## Result class 0

## Task Threshold test, viability, T/C < 60%: Cn1ncnc1[C@H]1c2n[nH]c(=O)c3cc(F)cc(c23)N[C@@H]1c1ccc(F)cc1 + Cc1cnc(CNC(=O)c2c(=O)c3ccc(N4CCCN(C)CC4)nc3n3c2sc2ccccc23)cn1
## Result class 1

## Task Lab note: confirm whether the reported viability, T/C for this molecule is below 60%, equality not counting. molecule: Cc1[nH]c2ccccc2c1CCNCc1ccc(/C=C/C(=O)NO)cc1 + Cc1cnc(CNC(=O)c2c(=O)c3ccc(N4CCCN(C)CC4)nc3n3c2sc2ccccc23)cn1
## Result class 1

## Task Given the entry Cn1ncnc1[C@H]1c2n[nH]c(=O)c3cc(F)cc(c23)N[C@@H]1c1ccc(F)cc1 + Cc1[nH]c2ccc(F)cc2c1-c1nc2c3cccnc3c3ncccc3c2[nH]1 , would its reported viability, T/C be below 60%?
## Result class 0
